// reported protein stability index per item
B1: TRIM55 (parent)
chain: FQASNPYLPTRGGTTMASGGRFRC

variants of: B1; assay: protein stability index of a GFP-peptide fusion (GPS, HEK-293T) (PSI 1-6); higher = more stable; conditions: c terminus: a fixed tail appended;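 also: lentivirally expressed fusions sorted by FACS into six bins by GFP to DsRed ratio, PSI derived from sequencing read proportions per bin multiplied by bin number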
Please state the value as a number alone, without comment.

protein stability index measured on L8Y = 1.59

protein stability index measured on Y7N = 3.4

protein stability index measured on S4F = 2.57
